Data credit: patent US7829567B2

system: hepatocellular carcinoma (SKHep1); test: In vitro anticancer assay (MTT), SKHep1; format: cell-based; settings: Homo sapiens, SK-HEP1, SKHep1 cells, 48 hrs, mean ± spread, read-out: Anti-proliferative evaluation IC50, SKHep1
IC50 reference

Below: 3 molecules and their reported IC50.
smiles=COc1ccc2c(c1)C(=NO)c1c-2c(N2CCN(C(=O)CCNCCN(C)C)CC2)nc2ccccc12 test_system="hepatocellular carcinoma (SKHep1)" measured_endpoint=IC50 result="> 30 µM"
smiles=COc1ccc2c(c1)C(=NOCCN1CCCCC1)c1c-2c(N2CCNCC2)nc2ccccc12 test_system="hepatocellular carcinoma (SKHep1)" measured_endpoint=IC50 result="1.6 µM"
smiles=COc1ccc2c(c1)C(=O)c1c-2c(Nc2ccc(C(C)=O)cc2)nc2ccccc12 test_system="hepatocellular carcinoma (SKHep1)" measured_endpoint=IC50 result="7.4 µM"

**Query** // IC50 lookup, key: `COc1ccc2c(c1)C(=NOCCN1CCCC1)c1c-2cnc2ccccc12`
**Result** 1.5 µM

**Query** Item: `O=C1c2ccccc2-c2c(NCCNCCO)nc3ccccc3c21`
**Result** 4.3 µM

**Query** Item: `CON=C1c2ccccc2-c2c(N3CCNCC3)nc3ccccc3c21`
**Result** 6.1 µM

**Query** Item: `COc1ccc2c(c1)C(=NOCCCN(C)C)c1c-2c(N2CCNCC2)nc2ccccc12`
**Result** 3 µM

**Query** Item: `COc1ccc2c(c1)C(=O)c1c-2c(NCCCN(C)C)nc2ccccc12`
**Result** 11.5 µM

**Query** Item: `COc1ccc2c(c1)C(=O)c1c-2c(N2CCNCC2)nc2ccccc12`
**Result** 25.3 µM
